B1: SEPHS2 (parent)
chain: KASGRFGLLQGTSAETSGGLLICL

# Variants of: B1
# assay_details: protein stability index of a GFP-peptide fusion (GPS, HEK-293T) (PSI 1-6); higher = more stable;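 note: lentivirally expressed fusions sorted by FACS into six bins by GFP to DsRed ratio, PSI derived from sequencing read proportions per bin multiplied by bin number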
# condition_label: c terminus: a fixed tail appended
Grouping key: protein stability index. Bins: class 1 = under 2, class 2 = from 2 up to 3, class 3 = 3 and over

{"variant_annotation": "G11N", "category": "class 2"}
{"variant_annotation": "R5D", "category": "class 2"}

[in] // return the class label for G7I
[out] class 2

[in] // return the class label for A2Q
[out] class 3
